# Tested on: Plasmodium falciparum
# experiment.description: GSK_TCMDC: Inhibition of Plasmodium falciparum 3D7 in whole erythrocytes, using parasite LDH activity as an index of growth.
# Assay type: functional, organism-based
# settings: Plasmodium falciparum, 3D7
XC50 listing for selected molecules.

# query: XC50 of entry Cc1nccc2c(NC(=O)N[C@@H]3CCN(c4ncc(C(F)(F)F)cc4Br)C3)cccc12
364 nM

# query: XC50 of entry CCCCCCN1CCCN(Cc2ccc(C(=O)Nc3cccc(CC)c3)cc2)CC1
670 nM

# query: XC50 of entry Cc1cc(N[C@@H](Cc2ccccc2)C(=O)NCc2cccs2)nc(NCC2CCCCC2)n1
988 nM

# query: XC50 of entry CC(C)c1ccc(NC(=O)NCCCC2CCCN(CCCCCNC(=O)/C=C/c3ccc(Cl)c(Cl)c3)C2)cc1 (stereo not drawn)
957 nM

# query: XC50 of entry Cc1cc(C2CCN(CCCCNC(=O)c3ccc(NC(=O)c4ccc(Cl)cc4)cc3)CC2)c(C)cc1OCc1ccccn1
801 nM

***
# query: XC50 of entry O=C(/C=C/c1ccc(Cl)cc1)NC1CCC(CN2CCC(c3c[nH]c4ccccc34)CC2)CC1 (stereo not drawn)
727 nM

# query: XC50 of entry CCCCNC(=O)[C@H](Cc1ccccc1)NC(=O)c1ccc(O)c(-c2ccc(Cl)c(Cl)c2)c1
527 nM

====

# Test system: Plasmodium falciparum
# experiment.description: GSK_TCMDC: Inhibition of Plasmodium falciparum 3D7 in whole erythrocytes, using parasite LDH activity as an index of growth.
# Type: functional, organism-based
# settings: Plasmodium falciparum, 3D7
Note to self: XC50 under 900 nM means fulfilled, ties and anything higher get not fulfilled.

Solved entries (count: 10):
Please determine if Nc1cc(-c2ccc3ccccc3c2)nc2ccccc12 is below 900 nM in terms of XC50.
fulfilled

Please determine if O=C(NC1CCC(CN2CCC(c3c[nH]c4ccccc34)CC2)CC1)C1(O)c2ccccc2-c2ccccc21 (configuration not stated) is below 900 nM in terms of XC50.
not fulfilled

Please determine if COc1ccc(C2C(C(=O)Nc3ccccc3)=C(C)Nc3c(C(=O)Nc4ccccc4)cnn32)cc1 (configuration not stated) is below 900 nM in terms of XC50.
not fulfilled

Please determine if C#C[C@H]1O[C@@H](n2cnc3c(Nc4cc(Br)cc(C(F)(F)F)c4)ncnc32)[C@H](O)[C@@H]1O is below 900 nM in terms of XC50.
not fulfilled

Please determine if Fc1ccc2[nH]c(-c3ccc(-c4ccc(CN5CCN(CCN6CCOCC6)CC5)cc4)s3)nc2c1 is below 900 nM in terms of XC50.
fulfilled

Please determine if CCOc1cc(N)c2nc3ccc([N+](=O)[O-])cc3cc2c1 is below 900 nM in terms of XC50.
fulfilled

Please determine if COc1ccc(-c2nc(NC(=O)CS(=O)(=O)c3ccc(F)cc3)sc2C)cc1 is below 900 nM in terms of XC50.
fulfilled

Please determine if CCOC(=O)NCC(=O)Nc1cccc(-c2cccc(-c3nc4cccc(C)c4[nH]3)c2)c1 is below 900 nM in terms of XC50.
fulfilled

Please determine if FC(F)(F)c1ccc2c(NCCc3ccccc3)ccnc2c1 is below 900 nM in terms of XC50.
not fulfilled

Please determine if Oc1cc(NC[C@H]2CCC[C@@H]2NCc2cc(Br)cc(Br)c2)nc2ccccc12 is below 900 nM in terms of XC50.
fulfilled

***
Please determine if CCOc1cc(CNCCCCCCNCc2cc(OCC)c(OCC)c3ccccc23)c2ccccc2c1OCC is below 900 nM in terms of XC50.
fulfilled

Please determine if CC1(C)OC[C@]2(C)[C@@H](CC[C@]3(C)C4=CC(=O)CCC4CC[C@@H]23)O1 (some centres not stated) is below 900 nM in terms of XC50.
fulfilled

====

XC50 listing for selected molecules.
# System: Plasmodium falciparum
# experiment.description: GSK_TCMDC: Inhibition of Plasmodium falciparum 3D7 in whole erythrocytes, using parasite LDH activity as an index of growth.
# Format: functional, organism-based
# settings: Plasmodium falciparum, 3D7

For orientation, consider the following solved cases.
# query: XC50 of entry CC(Cc1ccc(CNC(=O)c2ccc(CC(C)NCCc3cccc(Cl)c3)cc2)cc1)NCCc1cccc(Cl)c1 (stereo not given)
696 nM

# query: XC50 of entry OC(CNc1cccc(Cl)c1)Cn1c2ccc(Cl)cc2c2cc(Cl)ccc21 (stereo not given)
958 nM

# query: XC50 of entry CC(C)(C)OC(=O)N(Cc1cc(-n2nnnc2C(F)(F)F)ccc1O)[C@H]1CCCN(C(=O)OC(C)(C)C)[C@H]1c1ccccc1
719 nM

# query: XC50 of entry COc1cc(Cc2cnc(N)nc2N)ccc1OCc1ccc(-c2ccccc2C#N)cc1
940 nM

***
# query: XC50 of entry Cc1sc2ncnc(Sc3nnc(N)s3)c2c1C
399 nM

====

# System: Plasmodium falciparum
# experiment.description: GSK_TCMDC: Inhibition of Plasmodium falciparum 3D7 in whole erythrocytes, using parasite LDH activity as an index of growth.
# Assay type: functional, organism-based
# settings: Plasmodium falciparum, 3D7
experimental.endpoint: XC50 (nM)
Write the value in nM as a bare number.

For orientation, consider the following solved cases.
# query: XC50 of entry CN(C)Cc1cccc(-c2cnc(N)c(-c3nc4cc(S(C)(=O)=O)ccc4[nH]3)c2)c1
887

# query: XC50 of entry COc1ccc(-c2ccc([N+](=O)[O-])cc2C(=O)NCC(C)Oc2ccc(C(F)(F)F)cc2)cc1 (centres undefined)
550

# query: XC50 of entry CCC(CC)n1c(COC)cc2c3c(N)nc(N)nc3ccc21
5.57

# query: XC50 of entry O=C(Nc1ccc(Cl)cc1)c1ccc(S(=O)(=O)NCC2CCN(CC3CCCCC3)CC2)cc1
857

# query: XC50 of entry O=C(/C=C/c1ccc(Cl)c(Cl)c1)N1CCC(CN2CCC(c3c(-c4ccc(F)cc4)[nH]c4ccccc34)CC2)CC1
175

# query: XC50 of entry Cc1cc(NCc2ccc(F)cc2)nc2cc(O)ccc12
762

# query: XC50 of entry COc1ccc(CN2CCN(CCCCNC(=O)c3ccc(NC(=O)c4ccc(Cl)cc4)cc3)CC2)c(OC)c1
890

# query: XC50 of entry CCC(=O)Nc1nnc(Cc2ccc(OC)c(OC)c2)s1
910

# query: XC50 of entry COc1ccc2nccc([C@@H](O)CN3CCC(NC(=O)/C=C/c4ccc(Cl)c(C(F)(F)F)c4)CC3)c2c1
290

# query: XC50 of entry COc1ccc(C2C(C(=O)Nc3cc(OC)c(OC)c(OC)c3)c3cc(OC)c(OC)cc3C(=O)N2C)cc1 (centres undefined)
801

***
# query: XC50 of entry Cc1cccc2nc(-c3ccc(-c4ccc(NC(=O)Nc5cccc(C#N)c5)cc4)s3)[nH]c12
117

# query: XC50 of entry O=S(=O)(Nc1cc2c(cc1OCCCN1CCCCC1)CCNCC2)c1ccc(-c2ccc(Cl)cc2)cc1
1000

# query: XC50 of entry CN1CCC[C@H]1COc1ccc(CN2CC[C@H](NC(=O)c3ccc(Cl)c(Cl)c3)C2)cc1Br
983

# query: XC50 of entry O=C(Nc1nc2cc(S(=O)(=O)NCCCN3CCOCC3)ccc2n1CCCn1ccnc1)c1ccc(Cl)cc1
925

# query: XC50 of entry CCNc1cc(C(=O)N[C@@H](Cc2ccccc2)[C@H](O)CNC2(C(C)C)CCC2)cc(N2CCCCS2(=O)=O)c1
685

# query: XC50 of entry O=C(Nc1cccc(CN2CCN(C(=O)c3cccc(Cl)c3)CC2)c1)c1ccco1
438

# query: XC50 of entry Cc1ccc(C)c(NC(=O)CC2C(=O)N(c3ccccc3)C(=S)N2Cc2ccco2)c1 (centres undefined)
570

# query: XC50 of entry Cc1n[nH]c2cc(Nc3nccc(Nc4ccc(Oc5ccccc5)cc4)n3)ccc12
600

# query: XC50 of entry O=C1CCCN1CCCNCc1ccc(-c2cccc(-c3nc4cc(F)ccc4[nH]3)c2)cc1
659

====

# Test system: Plasmodium falciparum
# experiment.description: GSK_TCMDC: Inhibition of Plasmodium falciparum 3D7 in whole erythrocytes, using parasite LDH activity as an index of growth.
# Assay type: functional, organism-based
# settings: Plasmodium falciparum, 3D7
XC50 listing for selected compounds.
Write the value in nM as a bare number.

For orientation, consider the following solved cases.
Recall the recorded XC50 for Cc1cc(C)cc(CC(=O)N2CCC(n3c(C)nc4ccc(C)cc43)CC2)c1 with Plasmodium falciparum and state it.
534

Recall the recorded XC50 for COc1ccc(-c2cccc(NC(=O)c3cccc(C#N)c3)c2)cc1CNC(C)C with Plasmodium falciparum and state it.
694

Recall the recorded XC50 for CCNc1cc(C(=O)N[C@@H](Cc2ccccc2)[C@H](O)CNCc2cc(OC)cc(OC)c2)cc(N2CCCC2=O)c1 with Plasmodium falciparum and state it.
736

Recall the recorded XC50 for CC(C)NCc1ccc(-c2ccc(CN3CCCC(c4ccccc4)C3)cc2)c(C(=O)NC2Cc3ccccc3C2)c1 (centres undefined) with Plasmodium falciparum and state it.
991

Recall the recorded XC50 for O=C(Nc1cccc(-c2cccc(-c3nc4cc(C(F)(F)F)ccc4[nH]3)c2)c1)c1c[nH]cn1 with Plasmodium falciparum and state it.
206

Kindly consider the entry below.
Recall the recorded XC50 for OCCN1CCN(c2ccc(Nc3ccnc4cc5ccccc5cc34)cc2)CC1 with Plasmodium falciparum and state it.
41
